Biological target: Histone deacetylase 3 (Homo sapiens, UniProt O15379)
Sequence (O15379 whole entry): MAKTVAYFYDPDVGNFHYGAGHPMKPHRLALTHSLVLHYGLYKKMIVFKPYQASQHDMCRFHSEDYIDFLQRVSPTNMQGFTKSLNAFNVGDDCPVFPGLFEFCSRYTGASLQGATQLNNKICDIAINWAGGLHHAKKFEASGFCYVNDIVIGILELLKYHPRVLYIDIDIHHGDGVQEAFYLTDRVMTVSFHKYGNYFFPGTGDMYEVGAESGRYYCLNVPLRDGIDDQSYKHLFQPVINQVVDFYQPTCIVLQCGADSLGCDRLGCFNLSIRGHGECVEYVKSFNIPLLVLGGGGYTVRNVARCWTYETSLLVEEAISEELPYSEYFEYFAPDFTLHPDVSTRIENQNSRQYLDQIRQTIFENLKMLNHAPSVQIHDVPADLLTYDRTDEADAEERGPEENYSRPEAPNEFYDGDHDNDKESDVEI
Assay: Inhibition of HDAC3 (unknown origin)
pIC50: −log10 of the molar value. Square brackets hold non-standard residues; d marks the D form. Peptide text beside a SMILES is read from it. β3hL = CC(C)C[C@H](N)CC(=O)O; Nva = CCC[C@H](N)C(=O)O
measure-name: pIC50

INSERT INTO results (compound, experimental_target, recorded_value) VALUES
  ('CCC[C@@H]1NC(=O)[C@H](C)NC(=O)C[C@H](CC(C)C)NC(=O)[C@H](Cc2c[nH]c3ccccc23)NC1=O (cyclo(A[Nva]W[β3hL]))', 'Histone deacetylase 3 (Homo sapiens, UniProt O15379)', 5.84);

====

Target: Protein deacetylase HDAC6 (Homo sapiens)
Sequence (Q9UBN7 whole entry): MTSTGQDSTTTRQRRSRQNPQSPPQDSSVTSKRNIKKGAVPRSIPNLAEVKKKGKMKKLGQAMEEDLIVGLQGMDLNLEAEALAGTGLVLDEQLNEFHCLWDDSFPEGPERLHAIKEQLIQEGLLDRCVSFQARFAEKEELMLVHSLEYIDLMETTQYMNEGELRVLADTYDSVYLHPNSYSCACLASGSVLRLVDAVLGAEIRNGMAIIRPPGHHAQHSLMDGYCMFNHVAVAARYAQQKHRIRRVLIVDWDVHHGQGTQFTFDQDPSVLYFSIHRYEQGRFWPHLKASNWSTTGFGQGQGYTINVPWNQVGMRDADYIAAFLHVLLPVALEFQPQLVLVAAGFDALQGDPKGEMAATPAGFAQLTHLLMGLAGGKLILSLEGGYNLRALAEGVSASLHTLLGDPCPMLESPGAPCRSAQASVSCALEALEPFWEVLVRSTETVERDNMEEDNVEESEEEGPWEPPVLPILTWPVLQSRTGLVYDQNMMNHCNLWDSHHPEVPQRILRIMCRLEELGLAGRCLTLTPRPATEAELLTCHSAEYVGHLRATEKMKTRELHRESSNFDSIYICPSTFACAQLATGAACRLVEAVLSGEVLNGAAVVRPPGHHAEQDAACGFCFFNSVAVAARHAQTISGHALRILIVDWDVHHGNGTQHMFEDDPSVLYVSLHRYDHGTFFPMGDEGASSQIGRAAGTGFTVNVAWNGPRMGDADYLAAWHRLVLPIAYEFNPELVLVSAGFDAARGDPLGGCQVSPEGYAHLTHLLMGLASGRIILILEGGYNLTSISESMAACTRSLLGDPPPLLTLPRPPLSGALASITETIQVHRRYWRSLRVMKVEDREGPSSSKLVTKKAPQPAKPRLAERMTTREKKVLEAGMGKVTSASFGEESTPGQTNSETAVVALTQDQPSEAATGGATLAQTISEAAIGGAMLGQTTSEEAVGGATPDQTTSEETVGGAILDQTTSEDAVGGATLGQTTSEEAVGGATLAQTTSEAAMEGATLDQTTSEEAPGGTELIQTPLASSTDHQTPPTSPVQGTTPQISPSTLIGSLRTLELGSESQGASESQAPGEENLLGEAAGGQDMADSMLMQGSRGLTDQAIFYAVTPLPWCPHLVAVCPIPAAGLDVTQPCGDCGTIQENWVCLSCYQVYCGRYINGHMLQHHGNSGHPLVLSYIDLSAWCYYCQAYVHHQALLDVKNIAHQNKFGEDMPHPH
measure-name: IC50

INSERT INTO results (smiles_input, recorded_value) VALUES
  ('CCC(=O)CCCCC[C@@H]1NC(=O)[C@H](CCCCNC(C)=O)NC(=O)C[C@H](CC(C)C)NC(=O)[C@H](Cc2c[nH]c3ccccc23)NC1=O', '> 10 µM');

====

Species on record: Homo sapiens
Assay: Increase in SMN2 mRNA expression in induced pluripotent stem cell derived from human GM03813 cells isolated from SMA patient homozygous for deletion of exons 7 and 8 in SMN1 gene and containing 3 SMN2 gene copies at 1 uM by PCR assay relative to untreated control
Square brackets hold non-standard residues; d marks the D form. Peptide text beside a SMILES is read from it. * marks the point of attachment. Asu = N[C@@H](CCCCCC(=O)O)C(=O)O; β3hL = CC(C)C[C@H](N)CC(=O)O; NHOH = ON*
Let's look at some compounds and their measured fold change (FC).
measure-name: fold change (FC)

INSERT INTO results (compound, measure_name, recorded_value) VALUES
  ('CC(C)C[C@H]1CC(=O)N[C@@H](C)C(=O)N[C@@H](CCCCCC(=O)C(F)(F)F)C(=O)N[C@@H](Cc2c[nH]c3ccccc23)C(=O)N1', 'fold change (FC)', '2.1 to 2.4'),
  ('CC(C)C[C@H]1CC(=O)N[C@@H](C)C(=O)N[C@@H](CCCCCC(=O)NO)C(=O)N[C@@H](Cc2c[nH]c3ccccc23)C(=O)N1 (cyclo([Asu](NHOH)W[β3hL]A))', 'fold change (FC)', '2 to 3'),
  ('CCC(=O)CCCCC[C@@H]1NC(=O)[C@@H](C)n2nncc2[C@H](CC(C)C)NC(=O)[C@H](Cc2c[nH]c3ccccc23)NC1=O', 'fold change (FC)', '0.9 to 1.1'),
  ('CCC[C@@H]1NC(=O)[C@H](C)NC(=O)C[C@H](CC(C)C)NC(=O)[C@H](Cc2cn(CN(C)C)c3ccccc23)NC1=O', 'fold change (FC)', '1.5 to 1.8'),
  ('CCC(=O)CCCCC[C@@H]1NC(=O)[C@H](CCCCNC(C)=O)NC(=O)C[C@H](CC(C)C)NC(=O)[C@H](Cc2c[nH]c3ccccc23)NC1=O', 'fold change (FC)', '2.7 to 3.2');
